These entries and their values trace back to the supplement of paper PMC10065799.

Biological target: c-Src SH2;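 further: peptide library displayed on the E. coli surface as eCPX fusions, selected cells deep-sequenced, score is each peptide's frequency after selection divided by its frequency in the input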
Experiment: SH2 binding enrichment of the phosphorylated peptide, bacterial display (enrichment ratio); higher = better substrate or ligand; peptides without Tyr show the background
Everything with SH2 binding enrichment lower than 0.5 is 0 (no); everything else, including exactly 0.5, is 1 (yes).

Problem: Decide: is the reported value of SH2 binding enrichment for WAFNLYDINKD [KCNIP3_Y174] equal to or greater than 0.5?
Result: 1 (yes)

Problem: Decide: is the reported value of SH2 binding enrichment for EYGSGYPNDPK [RNASEH2A_Y210_D205E] equal to or greater than 0.5?
Result: 0 (no)

Problem: Decide: is the reported value of SH2 binding enrichment for YDEYRYRSVIK [CFTR_Y517] equal to or greater than 0.5?
Result: 1 (yes)

Problem: Decide: is the reported value of SH2 binding enrichment for LYVDVYGPSVP [NUBPL_Y109_D105Y] equal to or greater than 0.5?
Result: 1 (yes)

Problem: Decide: is the reported value of SH2 binding enrichment for FDNSVYQKTTE [LDLR_Y828_P826S] equal to or greater than 0.5?
Result: 1 (yes)

Problem: Decide: is the reported value of SH2 binding enrichment for NNRVFYGNSDC [RS1_Y177_R182C] equal to or greater than 0.5?
Result: 1 (yes)
